Measurement protocol: qHTS profiling of the MIPE4 collection as inhibitors of Plasmodium falciparum (HB3) proliferation (AID 743347);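 note: plate controls were DMSO vehicle wells for no effect and artemisinin wells for full effect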
Condition details: P. falciparum HB3 in erythrocytes, SYBR Green DNA, 72 h; at 28.5 µM (top of the series) unless noted
Categories are defined by ranges of growth, % of control, namely zone 1 (below 8%), zone 2 (8% to below 50%), zone 3 (50% or more)

// below: answered compounds
Compound	Group label
O=C(Nc1ncc(SCCN2CCCC2)s1)[C@]1(c2ccc(S(=O)(=O)C3CC3)cc2)C[C@@H]1C1CCCCC1	zone 2
CN[C@@H](C)[C@H]1[C@H](O)C[C@@]2(C)[C@@H]3CC[C@H]4C(C)(C)[C@@H](NC)CC[C@@]45C[C@@]35CC[C@]12C	zone 2
COc1ccc2ccc(=O)oc2c1CC=C(C)C	zone 3
CC1(C)[C@H]2CC[C@]3(C)[C@@H](C(=O)C=C4[C@@H]5C[C@@](C)(C(=O)O)CC[C@]5(C)CC[C@]43C)[C@@]2(C)CC[C@@H]1O	zone 3
CC(=O)OCC(=O)[C@@]1(O)CC[C@H]2[C@@H]3CCC4=CC(=O)C=C[C@]4(C)[C@@H]3[C@@H](O)C[C@@]21C	zone 3

Data request: Textbook exercise: identify the category of the compound given here, `CCCCc1ccc(NS(=O)(=O)c2ccc(C)c(C(=O)N3CCN(c4cccc(C)c4C)CC3)c2)cc1` , according to its measured value.
Data returned: zone 3

Data request: Try `C[C@@]1(C(=O)Nc2ccc(F)nc2)CCCN1c1nc(Nc2cc(C3CC3)[nH]n2)c2cccn2n1` next.
Data returned: zone 1

Data request: Try `CNC(=O)[C@H](Cc1ccccc1)NC(=O)[C@H](CC(C)C)[C@H](CSc1cccs1)C(=O)NO` next.
Data returned: zone 1

Data request: Try `C[C@]12CC[C@@H]3c4ccc(O)cc4CC[C@H]3[C@H]1[C@@H](O)[C@@H](O)[C@H]2O` next.
Data returned: zone 1

Data request: Try `CC(=O)OCC(=O)[C@@]12OC(C)(C)O[C@H]1C[C@H]1[C@@H]3C[C@H](F)C4=CC(=O)C=C[C@]4(C)[C@@]3(F)[C@@H](O)C[C@@]12C` next.
Data returned: zone 3

Data request: Try `CC(=O)N1CCN(c2ccc(OCc3nn(C)c(C)c3-c3cccc4c(CCCOc5cc(C)c(Cl)c(C)c5)c(C(=O)O)n(Cc5cccnc5)c34)cc2)CC1` next.
Data returned: zone 1

Data request: Try `COc1ccc(-c2ccc3ncc4c(c3c2)n(-c2ccc(N3CCNCC3)c(C(F)(F)F)c2)c(=O)n4C)cn1` next.
Data returned: zone 1

Data request: Try `CC(C)Oc1cc(Nc2nc(N[C@@H](C)c3ccc(F)cn3)ncc2Cl)[nH]n1` next.
Data returned: zone 2

Data request: Try `COc1c(C)c2c(c(O)c1CC=C(C)CCC(=O)OCCN1CCOCC1)C(=O)OC2` next.
Data returned: zone 2

Data request: Try `O=C(Nc1cccc2c(=O)cc(-c3nn[nH]n3)oc12)c1ccc(OCCCCc2ccccc2)cc1` next.
Data returned: zone 1

Data request: Try `C[C@H]1[C@H](O)O[C@@H]2O[C@@]3(C)CC[C@@H]4[C@H](C)CC[C@@H]1[C@@]24OO3` next.
Data returned: zone 2

Data request: Try O=C1C(CCC(O)c2ccc(F)cc2)C(c2ccc(O)cc2)N1c1ccc(F)cc1 (centres undefined) next.
Data returned: zone 2

Data request: Try `CNC(=O)[C@H](CC1=CN=C2C=CCC=C12)NC(=O)[C@@H](CC(=O)NO)CC(C)C` next.
Data returned: zone 2

Data request: Try `Clc1ccc(C2(c3ccc(-c4cn[nH]c4)cc3)CCNCC2)cc1` next.
Data returned: zone 1

Data request: Try `CNc1nc(Nc2ccc(C(=O)N3CCOCC3)cc2OC)ncc1Cl` next.
Data returned: zone 3

Data request: Try `Cc1ccc2c(c1)c1c(n2CCc2ccc(C)nc2)CCN(C)C1` next.
Data returned: zone 3

Data request: Try `CCC(=O)NCC[C@@H]1CCc2ccc3c(c21)CCO3` next.
Data returned: zone 3

Data request: Try CCC(C)SSc1ncc[nH]1 (centres undefined) next.
Data returned: zone 3
